test system: Wolbachia pipientis; assay: Anti-Wolbachia Cell-Based Screen; type: functional; set-up: scale not given: in the data most compounds retested in dose-response had high values; conditions: 5 µM
In all, about 48,000 compounds went through this assay and about 13,000 (27%) showed an effect of 50% or more. This is one part of the list.
Measured Percent Effect of individual entries
Put your answer as a value accompanied by its unit after it.

Illustrative cases are given below, each with its answer.
Cn1cc(NC(=O)c2cc[nH]n2)cc(Cl)c1=O: -6.664%
CCS(=O)(=O)c1ccc2oc([C@H]3CCN(CC4CCCCC4)C3)nc2c1: -4.53%
Cc1ccc(C(=O)N2CCCC2c2nnc3n2CCCCC3)o1 (stereo not drawn): -4.034%
CC(C)c1noc([C@@H]2C[C@H](NS(=O)(=O)Cc3ccccc3)CN2C)n1: -6.361%
Cc1nc(C)c(C(=O)N2CCc3nnc(C4CCCCN4C)n3CC2)s1 (stereo not drawn): 78.92%

Task: Value lookup for Percent Effect; key = CC(C)C(=O)N1CCC2(CC1)NC(=O)[C@H]1CN(C(=O)N(C)C)C[C@H]12
Result: -23.47%

Task: Now try COc1cccc(-c2cccc(CN3C[C@@H]4CC[C@H](C3)N(C)C4=O)c2)c1 .
Result: 5.514%

Task: One more compound: Cc1nc(C)c(C(=O)N2CCCc3c(F)cccc32)o1
Result: -18.15%

Task: // same read-out, input: N#Cc1ccccc1CN1CCC(c2nccn2CC2CCC2)CC1
Result: 43.99%

Task: Proceed to O=C(NC1CCCCC1)C1CCCN(C(=O)Nc2ccccn2)C1 (stereo not drawn)
Result: 6.063%

Task: Follow-up entry: Cc1nc(C2CCCN(C(=O)c3sc(C)nc3C)C2)no1 (stereo not drawn)
Result: -10.94%

Task: Another compound: COc1ccc(N)c(N2CCN(C(C)=O)CC2)n1
Result: -3.558%

Values compiled from ChEMBL document CHEMBL3988442.
